From various publications: IC50 for Epidermal growth factor receptor (Homo sapiens, UniProt P00533).
Please give a number only; it is taken to be in nM.

Value lookup for IC50; key = O=C(Nc1cnn(-c2ccccc2)c1)c1cccc(NS(=O)(=O)c2ccccc2)c1
15400

Now consider Cc1cc(=O)n(-c2ccc(F)cc2)nc1C(=O)Nc1ccc(Oc2ccnc3[nH]ccc23)c(F)c1 and answer again.
725

Now consider CCOC(=O)N[C@H](CS(C)(=O)=O)c1ccc(-c2ccc3ncnc(Nc4ccc(OCc5cccc(F)c5)c(Cl)c4)c3c2)o1 and answer again.
89.6

Now consider COCCOc1cc2ncnc(Nc3ccc(NC(=O)C45CC6CC(CC(C6)C4)C5)c(OC)c3)c2cc1OCCOC and answer again.
5.94

Now consider COc1cc(/C=C2\SC(=N)NC2=O)ccc1OCCCOc1cc(C)cc(C)c1 and answer again.
56000
